# Test system: TK-10 renal
# PROTOCOL_SUMMARY: NCI-60 one-dose screen, 48 h (100 = growth as untreated, 0 = no growth, -100 = all killed)
# EXPERIMENTAL_CONDITIONS: 10 µM unless noted
This is part of a sample that, as a whole, favours compounds with a hit. Of some 83,000 tested, about 20% had one in any assay.

>  <COMPOUND>
C=C(C=O)[C@@H]1CC[C@]2(CO)CC[C@]3(C)[C@H](CC[C@@H]4[C@@]5(C)CCCNC(C)(C)[C@@H]5CC[C@]43C)[C@@H]12

>  <growth / %>
125

$$$$
>  <COMPOUND>
O=C(CNc1nc(-c2cccc([N+](=O)[O-])c2)cs1)Nc1cccc([N+](=O)[O-])c1

>  <growth / %>
-13.6

$$$$
>  <COMPOUND>
O=S(=O)(NCCCNc1nccc(-c2[nH]c(-c3ccccc3)nc2-c2ccc(Cl)c(O)c2)n1)c1cccc2ccccc12

>  <growth / %>
49.7

$$$$
>  <COMPOUND>
NC(N)=Nc1ccc(Oc2ccc(Nc3ccc(Cl)c(C(F)(F)F)c3)cc2)cc1

>  <growth / %>
95.6

$$$$
>  <COMPOUND>
CC(=O)c1cc(C(=O)N2c3ccccc3Sc3ccccc32)n2ccc3ccccc3c12

>  <growth / %>
98.4

$$$$
>  <COMPOUND>
CC(C)(C)CC(C)(C)n1nnnc1C(Nc1nccs1)c1cc2cccc3ccc4cccc1c4c32 (stereo not drawn)

>  <growth / %>
108

$$$$
>  <COMPOUND>
Oc1cccc2ccc(-c3nnc(SCc4ccc(O)c5ncccc45)n3-c3ccccc3)nc12

>  <growth / %>
14.2

$$$$
>  <COMPOUND>
Cc1ccc(-n2cc(/C=N/NC(=O)c3ccncc3)c(-c3ccc(S(C)(=O)=O)cc3)n2)cc1

>  <growth / %>
118

$$$$
>  <COMPOUND>
Cc1cc2ncc(-c3cc4ccccc4c(N4CCN(C)CC4)n3)nc2cc1C

>  <growth / %>
67.2

$$$$
>  <COMPOUND>
CC(=O)N1C(=S)NC(=O)C1CC(C)C (stereo not drawn)

>  <growth / %>
100

$$$$
>  <COMPOUND>
NC(N)=Nc1ccc(Oc2cccc(NC(N)=Nc3ccc(Br)cc3)c2)cn1

>  <growth / %>
69.1

$$$$
>  <COMPOUND>
NS(=O)(=O)c1ccc(Nc2nc(N/N=C/c3c[nH]c4ccccc34)nc(Nc3ccccc3)n2)cc1

>  <growth / %>
94.7

$$$$
>  <COMPOUND>
COc1ccc(-n2c(/C=C3\C(=O)Nc4ccccc43)ccc2CO)cc1

>  <growth / %>
105

$$$$

Value source: PubChem BioAssay (NCI)
